Hello, the source for this data is ChEMBL document CHEMBL4311942, in case you need it.

tested on: Erythrocyte; test: Haemolytic activity in human erythrocytes assessed as lowest concentration causing 5% hemolysis after 1 hr; assay type: ADME, cell-based
Where a SMILES comes first, the peptide text is derived from it.
PROPERTY MEASURED: MHC (µM)
Report as a plain number; the unit µM is understood.

(Q) MHC for CC(C)C[C@H](NC(=O)[C@H](CCCCN)NC(=O)[C@H](Cc1c[nH]c2ccccc12)NC(=O)[C@H](CCCCN)NC(=O)[C@H](CC(C)C)NC(=O)[C@H](CCCCN)NC(=O)[C@H](Cc1c[nH]c2ccccc12)NC(=O)[C@H](CCCCN)NC(=O)[C@H](CC(C)C)NC(=O)[C@H](CCCCN)NC(=O)[C@@H](N)Cc1c[nH]c2ccccc12)C(=O)N[C@@H](CCCCN)C(N)=O (H-WKLKWKLKWKLK-NH2) ?
(A) 128

---

tested on: Escherichia coli; assay: Antibacterial activity against Escherichia coli ATCC 25922 incubated for 18 to 24 hrs by broth microdilution method; assay type: functional
Where a SMILES comes first, the peptide text is derived from it.
Field: MIC. Provide a value for each of the compounds that follow.

(Q) Request: MIC, test system Escherichia coli, entry "O=C(O)c1cn(C2CC2)c2cc(N3CCNCC3)c(F)cc2c1=O"
(A) 2 µM

(Q) Kindly state the measured MIC obtained for CC(C)[C@H](NC(=O)[C@H](CCCNC(=N)N)NC(=O)[C@H](Cc1c[nH]c2ccccc12)NC(=O)[C@H](CCCNC(=N)N)NC(=O)[C@@H](NC(=O)[C@H](CCCCN)NC(=O)[C@H](Cc1c[nH]c2ccccc12)NC(=O)[C@H](CCCNC(=N)N)NC(=O)[C@@H](NC(=O)[C@H](CCCNC(=N)N)NC(=O)[C@@H](N)Cc1c[nH]c2ccccc12)C(C)C)C(C)C)C(=O)N[C@@H](CCCCN)C(N)=O (H-WRVRWKVRWRVK-NH2) with Escherichia coli.
(A) 4 µM

(Q) # get_value(readout= MIC, system= Escherichia coli) for CC(C)C[C@H](NC(=O)[C@H](CCCNC(=N)N)NC(=O)[C@H](CC(C)C)NC(=O)[C@H](CCCNC(=N)N)NC(=O)[C@@H](NC(=O)[C@H](CCCCN)NC(=O)[C@H](CC(C)C)NC(=O)[C@H](CCCNC(=N)N)NC(=O)[C@H](CC(C)C)NC(=O)[C@H](CCCNC(=N)N)NC(=O)[C@@H](N)CC(C)C)[C@@H](C)O)C(=O)N[C@@H](CCCCN)C(N)=O (H-LRLRLKTRLRLK-NH2)
(A) 4 µM

(Q) So what MIC did "CC[C@H]1OC(=O)[C@H](C)[C@@H](O[C@H]2C[C@@](C)(OC)[C@@H](O)[C@H](C)O2)[C@H](C)[C@@H](O[C@@H]2O[C@H](C)C[C@H](N(C)C)[C@H]2O)[C@](C)(O)C[C@@H](C)C(=O)[C@H](C)[C@@H](O)[C@]1(C)O" get with Escherichia coli?
(A) 32 µM

(Q) Enter reported MIC observed with Escherichia coli for CC(C)C[C@H](NC(=O)[C@H](CCCNC(=N)N)NC(=O)[C@H](CCCCN)NC(=O)[C@H](CCCNC(=N)N)NC(=O)[C@@H](NC(=O)[C@H](CCCCN)NC(=O)[C@H](CCCCN)NC(=O)[C@H](CCCNC(=N)N)NC(=O)[C@H](CC(C)C)NC(=O)[C@H](CCCNC(=N)N)NC(=O)[C@@H](N)CCCNC(=N)N)[C@@H](C)O)C(=O)N[C@@H](CCCCN)C(N)=O (H-RRLRKKTRKRLK-NH2)
(A) > 128 µM

(Q) Escherichia coli / MIC / CC(C)[C@H](NC(=O)[C@H](CCCNC(=N)N)NC(=O)[C@H](Cc1c[nH]c2ccccc12)NC(=O)[C@H](CCCNC(=N)N)NC(=O)[C@@H](NC(=O)[C@H](CCCCN)NC(=O)[C@H](Cc1c[nH]c2ccccc12)NC(=O)[C@H](CCCNC(=N)N)NC(=O)[C@@H](NC(=O)[C@H](CCCNC(=N)N)NC(=O)[C@@H](N)Cc1c[nH]c2ccccc12)C(C)C)[C@@H](C)O)C(=O)N[C@@H](CCCCN)C(N)=O (H-WRVRWKTRWRVK-NH2) : value?
(A) 4 µM
